Quick reference for GI50 among some compounds
# Test system: panel of 55 breast cancer cell lines
# assayMethodText: Cell growth inhibition assay (Cell Titer Glo, 72 h, 9 doses; GI50, TGI, LC50)
# Assay type: cell-based, human
# assayContext: HCC1954 cell line; censored GI50 values; value is the negative log10 of mol/L

Below, 2 compounds whose answers are already recorded.
> print(dat)
                                   compound  result
1  COc1cc2ncnc(Nc3cccc(Cl)c3)c2cc1OC [AG1478]    5.64
2  CCNCCCCNCCCCNCCCCNCCCCNCC=CCNCCCCNCCCCNCCCCNCCCCNCC.Cl.Cl.Cl.Cl.Cl.Cl.Cl.Cl.Cl.Cl (stereo in doubt) [CGC-11144]    6.56

Please turn your attention to the following entry.
input: State its GI50: CCn1cc(-c2ccnc3[nH]c(-c4cccc(CN(C)C)c4)cc23)c(-c2ccc(NC(=O)N(C)C)cc2)n1 [GSK1070916]
output: 5.56

###

# System: panel of 55 breast cancer cell lines
# assayMethodText: Cell growth inhibition assay (Cell Titer Glo, 72 h, 9 doses; GI50, TGI, LC50)
# Assay type: cell-based, human
# assayContext: cell line CAMA1; value is the negative log10 of mol/L
Parameter: GI50. Scope: all listed entries.
Just the number, please, no unit attached.

Observe how each entry below is paired with its result.
> print(dat)
                            structuresmiles  endpointname  quantitativereadout
1        CC(C)(C)c1cc(C=C(C#N)C#N)cc(Br)c1O          GI50                 4.48
2  CC(/C=C/C(=O)NO)=C\[C@@H](C)C(=O)c1ccc(N(C)C)cc1          GI50                 5.57

input: Fill in GI50 for O=c1[nH]c2ccccc2n1C1CCN(Cc2ccc(-c3nc4cc5[nH]cnc5cc4nc3-c3ccccc3)cc2)CC1 tested with panel of 55 breast cancer cell lines.
output: 5.59

###

Entries and their measured GI50 follow.
# System: panel of 55 breast cancer cell lines
# assayMethodText: Cell growth inhibition assay (Cell Titer Glo, 72 h, 9 doses; GI50, TGI, LC50)
# Type: cell-based, human
# assayContext: SUM1315MO2 cell line; censored GI50 values; value is the negative log10 of mol/L
Answer with a number only.

> print(dat)
                                   molecule                                   tgt  quantitativereadout
1     N.N.O=C([O-])C1(C(=O)[O-])CCC1.[Pt+2]  panel of 55 breast cancer cell lines                 4.56
2  Cc1cc(C(=O)N2CCN(c3cccc(Cl)c3)CC2)n(-c2ccccc2)n1 [XRP44X]  panel of 55 breast cancer cell lines                 6.11

input: Identify measured GI50 corresponding to CCNCCCCNCCCCNCCCCNCCCCNCC=CCNCCCCNCCCCNCCCCNCCCCNCC.Cl.Cl.Cl.Cl.Cl.Cl.Cl.Cl.Cl.Cl (stereo in doubt)
output: 5.69

###

# Test system: panel of 55 breast cancer cell lines
# assayMethodText: Cell growth inhibition assay (Cell Titer Glo, 72 h, 9 doses; GI50, TGI, LC50)
# Assay type: cell-based, human
# assayContext: cell line HCC1187; value is the negative log10 of mol/L
endpointName: GI50
Respond using a number only.

> print(dat)
                                   compound                                   tgt  quantitativereadout
1  N.N.O=C([O-])C1(C(=O)[O-])CCC1.[Pt+2] [Carboplatin]  panel of 55 breast cancer cell lines                 4.66
2  COc1ccc(C2=N[C@@H](c3ccc(Cl)cc3)[C@@H](c3ccc(Cl)cc3)N2C(=O)N2CCNC(=O)C2)c(OC(C)C)c1 [Nutlin 3a]  panel of 55 breast cancer cell lines                 4.68
3  COc1cccc(-c2cc(=O)c3ccccc3o2)c1N [PD 98059]  panel of 55 breast cancer cell lines                 5.56
4  O=c1[nH]c(=O)n([C@H]2C[C@H](O)[C@@H](CO)O2)cc1F [5-FdUR]  panel of 55 breast cancer cell lines                 3.18
5  COc1cc2ncnc(Nc3cccc(Cl)c3)c2cc1OC [AG1478]  panel of 55 breast cancer cell lines                 3.78

input: Note down GI50 recorded for Cc1cc(Nc2cc(N3CCN(C)CC3)nc(Sc3ccc(NC(=O)C4CC4)cc3)n2)n[nH]1 [VX-680]
output: 6.93

input: Look up and state reported GI50 for C=CCNC1=C2C[C@@H](C)C[C@H](OC)[C@H](O)[C@@H](C)/C=C(\C)[C@H](OC(N)=O)[C@@H](OC)/C=C\C=C(/C)C(=O)NC(=CC1=O)C2=O [17-AAG]
output: 5.29

input: Provide only the value of recorded GI50 for O=C1NC(=O)/C(=C/c2ccc(-c3ccc(F)cc3O)o2)S1 [AS-252424]
output: 5.78

input: Supply recorded GI50 for CC(/C=C/C(=O)NO)=C\[C@@H](C)C(=O)c1ccc(N(C)C)cc1 [Trichostatin A] here.
output: 5.32

input: Supply measured GI50 of COc1cc2c(Nc3ccc(NC(=O)c4ccccc4)cc3)ncnc2cc1OCCCN1CCOCC1 [ZM 447439] in your reply.
output: 6.19

input: Recall and state the measured GI50 for CCNCCCCNCCCCNCCCCNCCCCNCC=CCNCCCCNCCCCNCCCCNCCCCNCC.Cl.Cl.Cl.Cl.Cl.Cl.Cl.Cl.Cl.Cl (stereo in doubt) [CGC-11144] .
output: 6.02

input: Answer with the recorded GI50 of CC(C)(C)c1cc(C=C(C#N)C#N)cc(Br)c1O [AG1024] only.
output: 4.48

input: Answer with reported GI50 of O=S(=O)(CC1CS1)c1ccc(Oc2ccccc2)cc1 (centres unmarked) [SB-3CT]
output: 4.83

input: Complete the entry with GI50 for NS(=O)(=O)c1ccc(Nc2nc(OCC3CCCCC3)c3[nH]cnc3n2)cc1 [NU6102]
output: 5.11

input: Specify reported GI50 for the compound shown: CC(C)[C@H](CO)Nc1nc(Nc2cccc(Cl)c2)c2ncn(C(C)C)c2n1 [Purvalanol A]
output: 4.74

input: // Input: N#Cc1c(NC(=O)c2cccc3ccccc23)sc2c1CCCC2 [TCS JNK 5a] . Output its GI50 only.
output: 6.08

input: Tell me measured GI50 for O=c1[nH]c2ccccc2n1C1CCN(Cc2ccc(-c3nc4cc5[nH]cnc5cc4nc3-c3ccccc3)cc2)CC1 [Sigma AKT1-2 inhibitor] please.
output: 5.47

###

# GI50 listing for each entry below
# System: panel of 55 breast cancer cell lines
# assayMethodText: Cell growth inhibition assay (Cell Titer Glo, 72 h, 9 doses; GI50, TGI, LC50)
# Type: cell-based, human
# assayContext: cell line HCC1954; value is the negative log10 of mol/L
Response field accepts a number only; no unit should be typed.

Solved entries (count: 3):
> print(dat)
                            structuresmiles  quantitativereadout
1    N#Cc1c(NC(=O)c2cccc3ccccc23)sc2c1CCCC2                 5.90
2  Oc1cc(-c2nc(-c3ccccc3)[nH]c2-c2ccncc2)ccc1Cl                 4.48
3  CC(C)[C@H](CO)Nc1nc(Nc2cccc(Cl)c2)c2ncn(C(C)C)c2n1                 4.43

Now for another entry.
input: Note down GI50 recorded for COc1ccc(C2=N[C@@H](c3ccc(Cl)cc3)[C@@H](c3ccc(Cl)cc3)N2C(=O)N2CCNC(=O)C2)c(OC(C)C)c1
output: 4.76

###

# Tested on: panel of 55 breast cancer cell lines
# assayMethodText: Cell growth inhibition assay (Cell Titer Glo, 72 h, 9 doses; GI50, TGI, LC50)
# Format: cell-based, human
# assayContext: cell line HCC1937; censored GI50 values; value is the negative log10 of mol/L
endpointName: GI50
I'd appreciate a reply containing only the number, no unit.

These recorded examples may help you get a feel for the data.
> print(dat)
                                   compound                                   tgt  quantitativereadout
1  COc1cc2c(Nc3ccc(NC(=O)c4ccccc4)cc3)ncnc2cc1OCCCN1CCOCC1 [ZM447439]  panel of 55 breast cancer cell lines                 5.23
2  COc1ncc(-c2ccc3nccc(-c4ccnnc4)c3c2)cc1NS(=O)(=O)c1ccc(F)cc1F [GSK2126458A]  panel of 55 breast cancer cell lines                 7.57
3  O=C1NC(=O)/C(=C/c2ccc3nccc(-c4ccncc4)c3c2)S1 [GSK1059615B]  panel of 55 breast cancer cell lines                 6.09

Let us examine a further case.
input: Give reported GI50 for COc1ccc(C2=N[C@@H](c3ccc(Cl)cc3)[C@@H](c3ccc(Cl)cc3)N2C(=O)N2CCNC(=O)C2)c(OC(C)C)c1 [Nutlin 3a] (panel of 55 breast cancer cell lines)
output: 4.63
